These data points were gathered from ChEMBL document CHEMBL1136710.

# assay: Oral bioavailability in rat
# Type: ADME, organism-based
# condition-description: in vivo
metric: bioavailability (%)
Just the number in %, nothing appended.

Lookup: Identify measured bioavailability associated with CNc1cccc(CCOc2ccc(C[C@@H](CC(=O)O)c3ccccc3)cc2)n1
Found: 100

Lookup: Provide bioavailability value for the following compound: O=C(O)C[C@H](Cc1ccc(OCCCNc2ccccn2)cc1)c1ccccc1
Found: 100

Lookup: Give the measured bioavailability for O=C(O)C[C@H](Cc1ccc(OCCc2ccc3c(n2)NCCC3)cc1)c1ccccc1
Found: 100

###

# target-entity: Integrin alpha-V/beta-3 (Homo sapiens, UniProt P05106+P06756)
# Sequence (P05106 27-788 limits assumed): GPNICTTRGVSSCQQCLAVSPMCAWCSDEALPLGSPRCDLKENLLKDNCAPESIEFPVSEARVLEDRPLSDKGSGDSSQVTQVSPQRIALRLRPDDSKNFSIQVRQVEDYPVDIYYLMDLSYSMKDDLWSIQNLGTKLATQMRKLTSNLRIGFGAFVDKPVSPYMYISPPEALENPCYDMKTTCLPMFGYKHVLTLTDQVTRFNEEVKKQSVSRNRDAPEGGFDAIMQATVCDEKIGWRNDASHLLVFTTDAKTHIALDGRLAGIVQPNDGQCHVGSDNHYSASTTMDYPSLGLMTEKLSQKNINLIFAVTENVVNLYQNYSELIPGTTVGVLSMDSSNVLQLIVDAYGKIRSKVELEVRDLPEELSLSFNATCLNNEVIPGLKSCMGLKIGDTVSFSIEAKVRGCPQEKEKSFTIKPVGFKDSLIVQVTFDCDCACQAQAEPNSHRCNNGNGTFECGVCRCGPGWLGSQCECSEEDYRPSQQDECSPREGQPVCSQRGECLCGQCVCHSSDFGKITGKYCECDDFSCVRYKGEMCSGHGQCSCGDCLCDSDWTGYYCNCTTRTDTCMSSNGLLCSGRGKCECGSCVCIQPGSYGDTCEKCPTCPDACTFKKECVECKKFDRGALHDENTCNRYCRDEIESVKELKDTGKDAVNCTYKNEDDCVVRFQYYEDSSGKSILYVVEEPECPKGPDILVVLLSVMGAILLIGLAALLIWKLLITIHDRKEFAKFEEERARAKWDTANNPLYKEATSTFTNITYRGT
# Sequence (P06756 31-889 limits assumed): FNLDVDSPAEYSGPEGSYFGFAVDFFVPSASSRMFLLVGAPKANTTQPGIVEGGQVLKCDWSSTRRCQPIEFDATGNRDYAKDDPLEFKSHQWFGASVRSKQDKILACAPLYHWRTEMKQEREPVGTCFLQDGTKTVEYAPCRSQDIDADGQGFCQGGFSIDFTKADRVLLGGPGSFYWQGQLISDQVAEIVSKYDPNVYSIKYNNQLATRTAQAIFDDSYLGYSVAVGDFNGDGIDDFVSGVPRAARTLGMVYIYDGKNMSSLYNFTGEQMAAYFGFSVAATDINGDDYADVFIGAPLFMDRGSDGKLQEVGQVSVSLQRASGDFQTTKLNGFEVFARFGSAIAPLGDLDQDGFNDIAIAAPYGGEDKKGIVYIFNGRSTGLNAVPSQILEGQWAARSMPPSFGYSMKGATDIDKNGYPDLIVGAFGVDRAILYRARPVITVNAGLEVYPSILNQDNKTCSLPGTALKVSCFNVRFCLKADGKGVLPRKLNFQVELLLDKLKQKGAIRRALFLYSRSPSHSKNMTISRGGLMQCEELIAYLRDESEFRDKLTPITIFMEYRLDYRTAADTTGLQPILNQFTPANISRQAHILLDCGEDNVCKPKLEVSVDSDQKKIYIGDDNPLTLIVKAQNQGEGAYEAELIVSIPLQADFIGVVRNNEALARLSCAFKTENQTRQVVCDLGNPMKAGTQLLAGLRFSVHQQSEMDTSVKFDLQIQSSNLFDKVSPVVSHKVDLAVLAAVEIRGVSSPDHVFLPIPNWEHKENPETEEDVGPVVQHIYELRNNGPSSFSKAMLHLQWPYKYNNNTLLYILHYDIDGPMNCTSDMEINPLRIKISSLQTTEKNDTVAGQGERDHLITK
# Sequence (P06756 891-1048 limits assumed): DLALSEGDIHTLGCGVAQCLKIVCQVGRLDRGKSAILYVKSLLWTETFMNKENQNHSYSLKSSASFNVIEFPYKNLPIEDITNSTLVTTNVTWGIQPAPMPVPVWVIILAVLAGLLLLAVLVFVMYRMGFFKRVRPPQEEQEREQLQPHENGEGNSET
# assay: Binding affinity for alphav/beta 3 vitronectin receptor in HEK cells
# Format: cell-based, HEK293
metric: pIC50
Would you please state pIC50, meaning minus log10 of the concentration in mol/L, as a bare number?

- O=C(O)C[C@H](Cc1ccc(OCCc2ccc3c(n2)NCCC3)cc1)c1ccccc1: 7.52

Lookup: Name the recorded pIC50 of the compound listed here: O=C(O)C[C@H](Cc1ccc(OCCCNc2ccccn2)cc1)c1ccccc1
Found: 6.33

Lookup: Dear colleague, please send me the reported pIC50 for CNc1cccc(CCOc2ccc(C[C@@H](CC(=O)O)c3ccccc3)cc2)n1 when you can.
Found: 6.48

###

Below, each of the compounds is paired with its reported pKi value.
# target-entity: Integrin alpha-V/beta-3 (Homo sapiens, UniProt P05106+P06756)
# assay: Binding affinity for alphaV-beta3 vitronectin receptor
# reply with the number alone; pKi is -log10 of concentration in mol/L

* O=C(O)C[C@H](Cc1ccc(OCCc2ccc3c(n2)NCCC3)cc1)c1ccccc1 | 8.60
* O=C(O)CC(Cc1ccc(OCCCNc2ccccn2)cc1)c1ccccc1 (stereo not given) | 7.49
* CNc1cccc(CCOc2ccc(C[C@@H](CC(=O)O)c3ccccc3)cc2)n1 | 8.15
* O=C(O)C[C@@H](Cc1ccc(OCCCNc2ccccn2)cc1)c1ccccc1 | 6.77

Okay, now this compound:
Lookup: # return recorded pKi for entry O=C(O)C[C@H](Cc1ccc(OCCCNc2ccccn2)cc1)c1ccccc1
Found: 7.92

###

Measured half-life of individual entries
# assay: Half life period in rat
# Type: ADME, organism-based
# condition-description: in vivo
Kindly provide the numeric value in h only, without the unit symbol.

# annotated cases, reported half-life shown
* O=C(O)C[C@H](Cc1ccc(OCCc2ccc3c(n2)NCCC3)cc1)c1ccccc1 | 1.58
* CNc1cccc(CCOc2ccc(C[C@@H](CC(=O)O)c3ccccc3)cc2)n1 | 5.17

Let's switch to this molecule now.
Lookup: Supply reported half-life belonging to this molecule: O=C(O)C[C@H](Cc1ccc(OCCCNc2ccccn2)cc1)c1ccccc1
Found: 2.4

###

# target-entity: Integrin alpha-V/beta-5 (Homo sapiens, UniProt P06756+P18084)
# Sequence (P06756 31-889 limits assumed): as the sequence (P06756 31-889 limits assumed) above
# Sequence (P06756 891-1048 limits assumed): as the sequence (P06756 891-1048 limits assumed) above
# Sequence (P18084 24-799 limits assumed): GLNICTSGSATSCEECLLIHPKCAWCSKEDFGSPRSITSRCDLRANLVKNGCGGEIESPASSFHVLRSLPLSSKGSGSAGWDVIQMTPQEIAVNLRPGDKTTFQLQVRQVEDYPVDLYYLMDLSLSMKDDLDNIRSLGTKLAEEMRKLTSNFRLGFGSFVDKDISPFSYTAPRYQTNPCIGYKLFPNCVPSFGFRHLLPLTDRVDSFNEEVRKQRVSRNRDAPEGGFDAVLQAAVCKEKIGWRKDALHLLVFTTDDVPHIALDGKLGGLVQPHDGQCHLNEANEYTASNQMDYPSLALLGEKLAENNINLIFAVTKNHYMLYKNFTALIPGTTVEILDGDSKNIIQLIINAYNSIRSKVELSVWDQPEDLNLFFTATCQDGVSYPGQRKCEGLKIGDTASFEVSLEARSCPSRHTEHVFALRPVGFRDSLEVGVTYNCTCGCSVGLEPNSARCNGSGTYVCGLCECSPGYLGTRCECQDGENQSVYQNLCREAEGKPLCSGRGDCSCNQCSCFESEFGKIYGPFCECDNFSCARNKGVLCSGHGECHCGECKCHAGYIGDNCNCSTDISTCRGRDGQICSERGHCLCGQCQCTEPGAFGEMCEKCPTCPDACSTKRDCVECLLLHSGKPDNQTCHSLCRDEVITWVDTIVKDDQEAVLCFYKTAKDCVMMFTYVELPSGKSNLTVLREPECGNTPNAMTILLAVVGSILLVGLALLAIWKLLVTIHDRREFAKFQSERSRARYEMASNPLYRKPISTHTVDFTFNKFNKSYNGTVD
# assay: Binding affinity for alphaV-beta5 vitronectin receptor
The following compounds are listed with their measured pKi values.
Reminder that pKi means the negative base-10 logarithm of the concentration expressed in mol/L.

Solved entries (count: 2):
• O=C(O)C[C@@H]1Cc2ccc(OCCCNc3ccccn3)cc2Cc2ccccc21 = 8.59
• O=C(O)C[C@H](Cc1ccc(OCCc2ccc3c(n2)NCCC3)cc1)c1ccccc1 = 8.60

We now examine a further compound.
Lookup: Please report the measured pKi for O=C(O)CC(Cc1ccc(OCCCNc2ccccn2)cc1)c1ccccc1 (stereo not drawn) tested on Integrin alpha-V/beta-5 (Homo sapiens, UniProt P06756+P18084).
Found: 8.22

###

# assay: Plasma clearance in rat
# Format: ADME, organism-based
# condition-description: read-out: Clp
metric: clearance (mL/min/kg)
Use mL/min/kg as the unit, but write only the number.

Look over these answered cases.
- CNc1cccc(CCOc2ccc(C[C@@H](CC(=O)O)c3ccccc3)cc2)n1: 4.9
- O=C(O)C[C@H](Cc1ccc(OCCCNc2ccccn2)cc1)c1ccccc1: 7.2

Lookup: Please report clearance for the following compound: O=C(O)C[C@H](Cc1ccc(OCCc2ccc3c(n2)NCCC3)cc1)c1ccccc1
Found: 6
